From: paper PMC9120017

Target: mouse TMEM16A mutant G510P (Mus musculus, UniProt Q8BHY3, G510P)
Construct: expressed in transfected cells; host or cells: HEK293T
Experiment: Inside-out patch recording of 1PBC block, mutant G510P
Assay type: cell-based
Settings: 20 mV; 15 µM Ca2+
METRIC: pIC50
Expect pIC50 as a plain number equal to -log10 of the molar concentration.

Return reported pIC50; argument: N#Cc1c(C(F)(F)F)cc(O)n2c1nc1ccccc12
4.20

* * *

Molecular target: mouse TMEM16A mutant N546A (Mus musculus, UniProt Q8BHY3, N546A)
Construct: expressed in transfected cells; host or cells: HEK293T
Sequence (Q8BHY3 1-960 N546A): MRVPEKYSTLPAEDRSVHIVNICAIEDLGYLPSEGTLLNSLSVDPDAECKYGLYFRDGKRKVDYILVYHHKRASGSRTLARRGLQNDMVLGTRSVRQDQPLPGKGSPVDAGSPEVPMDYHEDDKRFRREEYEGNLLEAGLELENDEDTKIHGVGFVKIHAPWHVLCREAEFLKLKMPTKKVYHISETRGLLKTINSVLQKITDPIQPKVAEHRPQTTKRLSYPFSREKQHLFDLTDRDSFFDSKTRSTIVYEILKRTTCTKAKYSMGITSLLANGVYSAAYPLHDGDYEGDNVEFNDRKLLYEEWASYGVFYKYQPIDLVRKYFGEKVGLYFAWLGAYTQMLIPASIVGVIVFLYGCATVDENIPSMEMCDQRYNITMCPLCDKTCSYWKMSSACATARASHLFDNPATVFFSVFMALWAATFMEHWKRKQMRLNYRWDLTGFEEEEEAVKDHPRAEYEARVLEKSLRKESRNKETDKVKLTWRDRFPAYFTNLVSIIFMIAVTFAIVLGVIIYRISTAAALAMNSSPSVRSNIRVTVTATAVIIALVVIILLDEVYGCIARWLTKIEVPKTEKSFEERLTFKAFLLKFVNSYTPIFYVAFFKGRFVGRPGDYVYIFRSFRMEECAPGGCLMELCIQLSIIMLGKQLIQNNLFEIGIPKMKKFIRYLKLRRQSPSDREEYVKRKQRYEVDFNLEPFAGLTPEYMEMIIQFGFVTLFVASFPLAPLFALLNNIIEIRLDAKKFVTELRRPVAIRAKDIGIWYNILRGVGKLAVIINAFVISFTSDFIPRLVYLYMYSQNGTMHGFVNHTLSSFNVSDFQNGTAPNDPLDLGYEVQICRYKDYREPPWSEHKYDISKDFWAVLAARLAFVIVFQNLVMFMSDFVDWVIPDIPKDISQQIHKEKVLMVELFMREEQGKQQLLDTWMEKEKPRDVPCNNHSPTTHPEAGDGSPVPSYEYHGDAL
Assay: Inside-out patch recording of 1PBC block, mutant N546A
Type: cell-based
Details: N546A; V -100 mV
METRIC: IC50 (nM)
Output spec: scalar in nM, unitless text.

Request: IC50, test system mouse TMEM16A mutant N546A (Mus musculus, UniProt Q8BHY3, N546A), entry N#Cc1c(C(F)(F)F)cc(O)n2c1nc1ccccc12
2170

* * *

Molecular target: mouse TMEM16A mutant V599A (Mus musculus, UniProt Q8BHY3, V599A)
Construct: expressed in transfected cells; host or cells: HEK293T
Assay: Inside-out patch recording of 1PBC block, mutant V599A
Assay type: cell-based
Settings: V599A; V -80 mV
METRIC: IC50 (µM)
The response must be a number in µM with no trailing unit.

What measured IC50 goes with N#Cc1c(C(F)(F)F)cc(O)n2c1nc1ccccc12 [1PBC] ?
104

* * *

Biological target: mouse TMEM16A mutant K603Q (Mus musculus, UniProt Q8BHY3, K603Q)
Construct: expressed in transfected cells; host or cells: HEK293T
Sequence (Q8BHY3 1-960 K603Q): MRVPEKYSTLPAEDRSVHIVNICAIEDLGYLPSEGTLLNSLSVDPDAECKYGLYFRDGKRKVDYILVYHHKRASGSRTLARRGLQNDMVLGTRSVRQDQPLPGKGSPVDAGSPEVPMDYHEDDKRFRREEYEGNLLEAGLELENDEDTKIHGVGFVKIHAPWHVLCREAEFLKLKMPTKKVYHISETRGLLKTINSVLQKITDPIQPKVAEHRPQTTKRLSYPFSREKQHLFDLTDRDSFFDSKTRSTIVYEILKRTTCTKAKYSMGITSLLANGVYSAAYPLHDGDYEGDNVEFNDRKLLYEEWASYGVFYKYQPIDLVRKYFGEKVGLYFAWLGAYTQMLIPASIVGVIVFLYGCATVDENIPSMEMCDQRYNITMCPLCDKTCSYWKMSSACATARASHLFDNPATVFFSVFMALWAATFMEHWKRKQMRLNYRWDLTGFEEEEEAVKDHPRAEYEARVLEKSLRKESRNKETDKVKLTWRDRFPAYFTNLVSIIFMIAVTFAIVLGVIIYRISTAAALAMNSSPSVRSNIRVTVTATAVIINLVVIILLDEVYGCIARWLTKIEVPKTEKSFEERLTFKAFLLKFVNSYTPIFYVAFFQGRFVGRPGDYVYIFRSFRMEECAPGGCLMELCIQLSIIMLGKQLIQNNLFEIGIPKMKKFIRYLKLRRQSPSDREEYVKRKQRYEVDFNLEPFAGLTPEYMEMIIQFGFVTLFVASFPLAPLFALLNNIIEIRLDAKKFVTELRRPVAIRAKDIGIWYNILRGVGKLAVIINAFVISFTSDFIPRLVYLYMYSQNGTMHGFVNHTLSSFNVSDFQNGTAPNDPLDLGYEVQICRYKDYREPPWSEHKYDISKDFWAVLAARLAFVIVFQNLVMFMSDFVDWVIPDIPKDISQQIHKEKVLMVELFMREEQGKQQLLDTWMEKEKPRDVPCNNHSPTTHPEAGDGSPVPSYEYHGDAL
Test: Inside-out patch recording of 1PBC block, mutant K603Q
Type: cell-based
Details: 20 mV; 4 µM Ca2+
METRIC: IC50 (µM)
Numeric answer only, unit µM assumed.

Entry N#Cc1c(C(F)(F)F)cc(O)n2c1nc1ccccc12 [1PBC] , system mouse TMEM16A mutant K603Q (Mus musculus, UniProt Q8BHY3, K603Q): what IC50 was measured?
206

* * *

Target: mouse TMEM16A mutant Y598A (Mus musculus, UniProt Q8BHY3, Y598A)
Construct: expressed in transfected cells; host or cells: HEK293T
Test: Inside-out patch recording of 1PBC block, mutant Y598A
Format: cell-based
Details: Y598A; V -60 mV
METRIC: pIC50
# pIC50: negative log10 of molar concentration; output just the value

Endpoint output: pIC50 of N#Cc1c(C(F)(F)F)cc(O)n2c1nc1ccccc12 . Value?
5.05

* * *

Biological target: mouse TMEM16A mutant N546A (Mus musculus, UniProt Q8BHY3, N546A)
Construct: expressed in transfected cells; host or cells: HEK293T
Assay: Inside-out patch recording of 1PBC block, mutant N546A
Type: cell-based
Details: N546A; V 140 mV
METRIC: pIC50
Quick note: pIC50 means taking -log10 of the concentration in moles per liter.

What measured pIC50 goes with N#Cc1c(C(F)(F)F)cc(O)n2c1nc1ccccc12 [1PBC] ?
6.50

* * *

Target: mouse TMEM16A mutant R515A (Mus musculus, UniProt Q8BHY3, R515A)
Construct: expressed in transfected cells; host or cells: HEK293T
Test: Inside-out patch recording of 1PBC block, mutant R515A
Assay type: cell-based
Settings: 40 mV; 4 µM Ca2+
METRIC: IC50 (µM)
The reply should be a number in µM, with the unit left off.

Reported IC50, compound N#Cc1c(C(F)(F)F)cc(O)n2c1nc1ccccc12 [1PBC] : ____
102

* * *

Target: mouse TMEM16A mutant S517A (Mus musculus, UniProt Q8BHY3, S517A)
Construct: expressed in transfected cells; host or cells: HEK293T
Experiment: Inside-out patch recording of 1PBC block, mutant S517A
Type: cell-based
Details: S517A; V 40 mV
METRIC: pIC50
In textbook form, pIC50 equals minus log to base ten of the concentration in mol/L.

Which pIC50 is listed for N#Cc1c(C(F)(F)F)cc(O)n2c1nc1ccccc12 ?
5.52

* * *

Target: mouse TMEM16A mutant I636A (Mus musculus, UniProt Q8BHY3, I636A)
Construct: expressed in transfected cells; host or cells: HEK293T
Assay: Inside-out patch recording of 1PBC block, mutant I636A
Assay type: cell-based
Conditions: I636A; V 100 mV
METRIC: IC50 (µM)
Express it in µM; write the number only.

Please provide the recorded IC50 for N#Cc1c(C(F)(F)F)cc(O)n2c1nc1ccccc12 [1PBC] , tested on mouse TMEM16A mutant I636A (Mus musculus, UniProt Q8BHY3, I636A).
3.89

* * *

Biological target: mouse TMEM16A mutant Q637A (Mus musculus, UniProt Q8BHY3, Q637A)
Construct: expressed in transfected cells; host or cells: HEK293T
Assay: Inside-out patch recording of 1PBC block, mutant Q637A
Assay type: cell-based
Settings: 40 mV; 2 µM Ca2+
Method: HEK293T cells (ATCC CRL-1573) were maintained in Dulbecco’s modified Eagle’s medium (DMEM; Sigma-Aldrich) supplemented with 10 U ml^−1 penicillin, 0.1 mg ml^−1 streptomycin (Sigma-Aldrich), 2 mM L-glutamine (Sigma-Aldrich), and 10% FBS (Sigma-Aldrich) in a humidified atmosphere containing 5% CO2 at 37 °C. […]
METRIC: IC50 (µM)
Express your answer in µM, writing the number without its unit.

// query IC50 value for entry N#Cc1c(C(F)(F)F)cc(O)n2c1nc1ccccc12
1.15
